- ASSAY PROCEDURE: chemical genetic growth profiling, strain panel (AID 1159580);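 further: tested at 20 µM; growth read once vehicle control cultures reached saturation at 30 °C; 1 = growth at the plate median or of vehicle wells; lower values mean less growth of the strain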
- ASSAY SETUP: S. cerevisiae deletion strains, growth OD, locus YBL061C, strain skt5, active compounds read low
Hit rate of the full screen: of about 5,500 compounds, about 2,000 (36%) were called active. Not shown: some 18% with an inconclusive outcome. The list shows a part of the results.
In this section, each of the compounds is paired with its reported normalized growth.
Simply state the number, no unit and no words.

Reported normalized growth ( CC1(C)CC2C1CCC1(C)OC1CCC2(C)O (stereo not given) ) = 1.04

Reported normalized growth ( `c1cc2c(cc1[C@H]1OC[C@H]3[C@@H]1CO[C@H]3c1ccc3c(c1)OCO3)OCO2` ) = 0.918

Reported normalized growth ( `O=C(O)c1ccc2c(c1)OCO2` ) = 1

Reported normalized growth ( C=CCN1CC[C@]23c4c5ccc(O)c4OC2C(=O)CC[C@@]3(O)[C@H]1C5 (stereo not given in full) ) = 0.978

Reported normalized growth ( N[C@@H](CCC(=O)N[C@@H](CCSC(CC(=O)O)C(=O)O)C(=O)NCC(=O)O)C(=O)O (stereo not given in full) ) = 0.989

Reported normalized growth ( `Nc1nc2ncc(CNc3ccc(C(=O)N[C@@H](CCC(=O)O)C(=O)O)cc3)nc2c(=O)[nH]1` ) = 1

Reported normalized growth ( CC1(C)CC2C1CCC1(C)OC2(C)CCC1O (stereo not given) ) = 1.03

Reported normalized growth ( CC[C@@]1(C2O[C@@H](C3O[C@@](O)(CC)[C@H](C)C[C@@H]3C)C[C@@H]2C)CC[C@H]([C@]2(C)CCC3(C[C@H](O)[C@@H](C)[C@@H]([C@H](C)[C@@H](OC)[C@H](C)C(=O)O)O3)O2)O1 (stereo not given in full) ) = 1.04

Reported normalized growth ( `O=C(O)c1cc(O)c(O)c(O)c1` ) = 1.03

New cases:
Reported normalized growth ( `O=C(O)c1cc(=O)c(O)c2c(O)c(O)ccc2c1` ) = 0.998

----------
- ASSAY PROCEDURE: chemical genetic growth profiling, strain panel (AID 1159580);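 further: tested at 20 µM; growth read once vehicle control cultures reached saturation at 30 °C; 1 = growth at the plate median or of vehicle wells; lower values mean less growth of the strain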
- ASSAY SETUP: S. cerevisiae deletion strains, growth OD, locus YPL256C, strain CLN2, active compounds read low
About 2,000 (36%) of roughly 5,500 compounds were called active. Inconclusive results (about 18%) are left out. Some of the results follow.
Labelling: normalized growth reported below 0.9 becomes 1; at or above becomes 0.

Could you please tell me whether normalized growth recorded for `COc1cc(/C=C/C(=O)O)cc(OC)c1OC` is less than 0.9?
0

New cases:
Could you please tell me whether normalized growth recorded for `CC1=C(/C=C/C(C)=C/C=C/C(C)=C\C(=O)O)C(C)(C)CCC1` is less than 0.9?
0

Could you please tell me whether normalized growth recorded for CC1(C)CC2C1CCC1(C)OC1CCC2(C)O (configuration not stated) is less than 0.9?
0

Could you please tell me whether normalized growth recorded for `Cc1cc(C(=O)O/N=C(/N)c2ccc([N+](=O)[O-])o2)no1` is less than 0.9?
1

Could you please tell me whether normalized growth recorded for CC[C@@]1(C2O[C@@H](C3O[C@@](O)(CC)[C@H](C)C[C@@H]3C)C[C@@H]2C)CC[C@H]([C@]2(C)CCC3(C[C@H](O)[C@@H](C)[C@@H]([C@H](C)[C@@H](OC)[C@H](C)C(=O)O)O3)O2)O1 (some centres not stated) is less than 0.9?
0

Data origin: PubChem BioAssay AID1159580
